The measurements presented in this section are drawn from patent US9597407B2.

Tested on: bacteria
assay-info: Binding of targeting peptides to microorganisms (Table 3)
condition-parameters: peptide binding in aqueous buffers varied by peptide solubility; preferably 1x PBS
observable: Target(s) (microorganism bound by the targeting peptide)

substance | system-name | value-measured
1T-159 (IFSLHHFALICSEMGTFAVSKRAKYKWEVL; Peptide with targeting and/or antimicrobial activity) [Peptide 1T-159] | bacteria | P. gingivalis
1T-71 (KIDTNQWPPNKEG; Peptide with targeting and/or antimicrobial activity) [Peptide 1T-71] | bacteria | P. aeruginosa
1T-72 (EPTDGVACKER; Peptide with targeting and/or antimicrobial activity) [Peptide 1T-72] | bacteria | P. aeruginosa
1T-154 (YFSFLEIVGMARR; Peptide with targeting and/or antimicrobial activity) [Peptide 1T-154] | bacteria | P. gingivalis

----------
Tested on: bacteria
assay-info: Binding of targeting peptides to microorganisms (Table 3)
condition-parameters: peptide binding in aqueous buffers that varied depending on peptide solubility; preferably 1x PBS
observable: Target(s) (microorganism bound by the targeting peptide)

substance | value-measured
PF-702 (chain 1 LSGRLAGRR; chain 2 LSGRLAGRR; Peptide with targeting and/or antimicrobial activity) | Mycobacteria spp
PF-791 (IFLTTQNTDYSEHNAA; Peptide with targeting and/or antimicrobial activity) | S. mutans
PF-649 (chain 1 CPRYPFVDVGPAGPWRARWRVGS; chain 2 CPRYPFVDVGPAGPWRARWRVGS; Peptide with targeting and/or antimicrobial activity) | Mycobacteria spp
PF-675 (chain 1 EIIPISPTRRCEMHTMSSAEYRGL; chain 2 EIIPISPTRRCEMHTMSSAEYRGL; Peptide with targeting and/or antimicrobial activity) | Mycobacteria spp
PF-696 (chain 1 IRSGISAAYARPLR; chain 2 IRSGISAAYARPLR; Peptide with targeting and/or antimicrobial activity) | Mycobacteria spp
PF-688 (chain 1 ARNHAVIPAG; chain 2 ARNHAVIPAG; Peptide with targeting and/or antimicrobial activity) | Mycobacteria spp
PF-697 (chain 1 RADARAK; chain 2 RADARAK; Peptide with targeting and/or antimicrobial activity) | Mycobacteria spp
PF-792 (ALHASGIQAI; Peptide with targeting and/or antimicrobial activity) | S. mutans
PF-644 (chain 1 TSGLIIGENGLNGL; chain 2 TSGLIIGENGLNGL; Peptide with targeting and/or antimicrobial activity) | Mycobacteria spp

----------
System: microorganisms
assay-info: Morphology, biofilm and growth disruption by peptides (Table 5)
Format: cell-based
Parameters: key: A: Peptide aggregates; B: Less hyphal formation; Clumps; Diffuse clumps and small polyps; F: Diffuse growth; H: Thin; I: Growth inhibition; Microcolony formation; Rippled; Small polyps; Thick; W: Halo formation on top, microlonies on bottom
condition-parameters: S. pneumoniae
Ends that are not written are not given here.
observable: Organism, effect (morphology, biofilm and growth disruption)

substance | system-name | value-measured
PF-677 (chain 1 TCRGAGMH; chain 2 TCRGAGMH; Peptide with targeting and/or antimicrobial activity) | microorganisms | S. pneumoniae (D)
PF-475 (MREKVRFTQAFKLFWTNYFNFKGRSRRSEY; Peptide with targeting and/or antimicrobial activity) | microorganisms | S. pneumoniae (R)
PF-652 (chain 1 FLAPARPDLQAQRQALAQ; chain 2 FLAPARPDLQAQRQALAQ; Peptide with targeting and/or antimicrobial activity) | microorganisms | S. pneumoniae (A)
PF-647 (chain 1 GTFLGQKCAAATAS; chain 2 GTFLGQKCAAATAS; Peptide with targeting and/or antimicrobial activity) | microorganisms | S. pneumoniae (R)
PF-605 (HYRWNTQWWKY; Peptide with targeting and/or antimicrobial activity) | microorganisms | S. pneumoniae (D)
DLLKSLLGQDGAKNDEIIEFIKIIMEK [PF-591] | microorganisms | S. pneumoniae (R)
PF-670 (chain 1 TVIVAPMHSGV; chain 2 TVIVAPMHSGV; Peptide with targeting and/or antimicrobial activity) | microorganisms | S. pneumoniae (H)
PF-514 (QRFYKLFYHIDLTNEQALKLFQVK; Peptide with targeting and/or antimicrobial activity) | microorganisms | S. pneumoniae (M)
PF-688 (chain 1 ARNHAVIPAG; chain 2 ARNHAVIPAG; Peptide with targeting and/or antimicrobial activity) | microorganisms | S. pneumoniae (A)
PF-625 (chain 1 SDSTNNARTRKKARDVTTKDIDK; chain 2 SDSTNNARTRKKARDVTTKDIDK; Peptide with targeting and/or antimicrobial activity) | microorganisms | S. pneumoniae (H)
PF-556 (SLQIRMNTLTAAKASIEAA; Peptide with targeting and/or antimicrobial activity) | microorganisms | S. pneumoniae (D)
YIQFHLNQQPRPKVKKIKIFL-NH2 [PF-531] | microorganisms | S. pneumoniae (C)
PF-446 (SGNEKV; Peptide with targeting and/or antimicrobial activity) | microorganisms | S. pneumoniae (H)
PF-598 (MKFMLEVRNKAISAYKEITRTQI; Peptide with targeting and/or antimicrobial activity) | microorganisms | S. pneumoniae (R)
PF-666 (chain 1 PNRRSRPR; chain 2 PNRRSRPR; Peptide with targeting and/or antimicrobial activity) | microorganisms | S. pneumoniae (A)
PF-681 (chain 1 TALTTVGVSGARLITYCVGVEDI; chain 2 TALTTVGVSGARLITYCVGVEDI; Peptide with targeting and/or antimicrobial activity) | microorganisms | S. pneumoniae (M)
PF-537 (LANDYYKKTKKSW; Peptide with targeting and/or antimicrobial activity) | microorganisms | S. pneumoniae (C)
PF-424 (IAAFVTSRAFSDTVSPI; Peptide with targeting and/or antimicrobial activity) | microorganisms | S. pneumoniae (H)
PF-612 (GTTLKYGLERQLKIDIHPEITIINLNGGADEFAKL; Peptide with targeting and/or antimicrobial activity) | microorganisms | S. pneumoniae (C)
PF-585 (DYNHLLNVVQDWVNTN; Peptide with targeting and/or antimicrobial activity) | microorganisms | S. pneumoniae (R)
PF-469 (YKVNYNNIDNHFNTLRH; Peptide with targeting and/or antimicrobial activity) | microorganisms | S. pneumoniae (D)
PF-653 (chain 1 QSVHPLPAETPVADVI; chain 2 QSVHPLPAETPVADVI; Peptide with targeting and/or antimicrobial activity) | microorganisms | S. pneumoniae (H)
TKKIELKRFVDAFVKKSYENYILERELKKLIKAINEELPTK [PF-600] | microorganisms | S. pneumoniae (R)
